Target: MMP-17 catalytic domain (MMP-17CD) (Homo sapiens)
Sequence (Q9ULZ9 126-295 limits assumed): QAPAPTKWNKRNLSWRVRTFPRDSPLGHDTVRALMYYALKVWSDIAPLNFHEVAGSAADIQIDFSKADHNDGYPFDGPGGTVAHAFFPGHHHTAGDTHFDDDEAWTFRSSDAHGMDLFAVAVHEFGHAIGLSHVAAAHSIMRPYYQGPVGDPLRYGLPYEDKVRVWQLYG
pIC50: −log10 of the molar value.
Observed property: pIC50

* N#Cc1ccc(Cn2ccc3ccc(C#CCc4ccccc4)cc3c2=O)cc1 | < 4.00
* COc1cccc(CNC(=O)c2ccc3ccn(Cc4ccc(S(C)(=O)=O)cc4)c(=O)c3c2)c1 | < 4.00
* COc1ccc(CNC(=O)c2ccc3ccn(Cc4ccc(F)c(F)c4)c(=O)c3c2)cc1 | < 4.52
* Cc1ccc(CNC(=O)c2ccc3ccn(Cc4ccc(-c5nn[nH]n5)cc4)c(=O)c3c2)cc1 | < 4.00
* CSc1ccc(CNC(=O)c2ccc3ccn(Cc4ccc(-c5nn[nH]n5)cc4)c(=O)c3c2)cc1 | < 5.00
* O=C(O)c1ccc(Cn2ccc3ccc(C(=O)NCc4ccc(F)cc4)cc3c2=O)cc1 | < 4.00
* COc1cc(CNC(=O)c2ccc3ccn(Cc4ccc(C(=O)O)cc4)c(=O)c3c2)ccn1 | 4.13
* COc1cc(CNC(=O)c2ccc3ccn(Cc4ccc(-c5nn[nH]n5)cc4)c(=O)c3c2)ccc1O | < 4.52
* CSc1ccc(CNC(=O)c2ccc3ccn(Cc4ccc(C#N)cc4)c(=O)c3c2)cc1 | < 5.00

----------
Documented IC50 across a set of compounds
Target: MMP-13 catalytic domain (MMP-13CD) (Homo sapiens, UniProt P45452)
Construct: use the catalytic domain of the MMP-13 enzyme, namely matrix metalloproteinase-13 catalytic domain (“MMP-13CD”), rather than the corresponding full-length enzyme
Test: Inhibition of MMP-13 catalytic domain (thiopeptolide substrate hydrolysis)
Format: biochemical
Settings: Biological Table 1; read-out: MMP-13CD IC50
Observed property: IC50 (nM)

• O=C1CC(NC(=O)c2ccc(Cn3ccc4ccc(C#CCc5ccccc5)cc4c3=O)cc2)=NN1 = 19
• COc1cccc(CNC(=O)c2ccc3ccn(CCOc4ccccc4)c(=O)c3c2)c1 = 1200
• O=C(NCCN1CCOCC1)c1ccc(Cn2ccc3ccc(C#CCc4ccccc4)cc3c2=O)cc1 = 67
• O=C(NCc1cncnc1)c1ccc2ccn(Cc3ccc(F)c(F)c3)c(=O)c2c1 = 12000
• COc1cc(CNC(=O)c2ccc3ccn(Cc4ccc(F)c(F)c4)c(=O)c3c2)ccn1 = 290
• COc1cc(CNC(=O)c2ccc3ccn(Cc4ccc(S(C)(=O)=O)cc4)c(=O)c3c2)ccn1 = 680
• Cc1ccc(CNC(=O)c2ccc3ccn(Cc4ccc(-c5nn[nH]n5)cc4)c(=O)c3c2)cc1 = 220
• O=C(NN1CCCCC1)c1ccc(Cn2ccc3ccc(C#CCc4ccccc4)cc3c2=O)cc1 = 39
• O=C(NCc1cccnc1)c1ccc2ccn(CCOc3ccccc3)c(=O)c2c1 = 55000
• O=C(O)c1ccc(Cn2ccc3ccc(C(=O)NCc4ccc(F)cc4)cc3c2=O)cc1 = 30
• COc1cccc(CNC(=O)c2ccc3ccn(Cc4ccc(S(C)(=O)=O)cc4)c(=O)c3c2)c1 = 210
• COc1ccc(CNC(=O)c2ccc3ccn(CCOc4ccccc4)c(=O)c3c2)cc1 = 7500
• N#Cc1ccc(Cn2ccc3ccc(C(=O)NCc4cncnc4)cc3c2=O)cc1 = 17000
• COc1cc(CNC(=O)c2ccc3ccn(Cc4ccc(C#N)cc4)c(=O)c3c2)ccn1 = 400
• O=C(NCc1ccc(-c2csnn2)cc1)c1ccc2ccn(Cc3ccc(-c4nn[nH]n4)cc3)c(=O)c2c1 = 68
• CSc1ccc(CNC(=O)c2ccc3ccn(Cc4ccc(-c5nn[nH]n5)cc4)c(=O)c3c2)cc1 = 32

----------
Documented IC50 across a set of compounds
Biological target: MMP-13 catalytic domain (MMP-13CD) (Homo sapiens, UniProt P45452)
Construct: use the catalytic domain of the MMP-13 enzyme, namely matrix metalloproteinase-13 catalytic domain (“MMP-13CD”), rather than the corresponding full-length enzyme
Experiment: Inhibition of MMP-13 catalytic domain (thiopeptolide substrate hydrolysis)
Assay type: biochemical
Conditions: Biological Table 2, compounds of Example 66; read-out: MMP-13CD IC50
Observed property: IC50 (µM)

• COC(=O)Cn1ccc2ccc(C#CCc3ccccc3)cc2c1=O [Example 66q] = 22
• CS(=O)(=O)c1ccc(Cn2ccc3ccc(C#CCc4ccccc4)cc3c2=O)cc1 [Example 66o] = 95
• CCOC(=O)CCCCCn1ccc2ccc(C#CCc3ccccc3)cc2c1=O [Example 66v] = 8.7
• O=c1c2cc(C#CCc3ccccc3)ccc2ccn1CS(=O)(=O)c1ccccc1 [Example 66ad] = 20

----------
Molecular target: MMP-13 catalytic domain (MMP-13CD) (Homo sapiens, UniProt P45452)
Construct: use the catalytic domain of the MMP-13 enzyme, namely matrix metalloproteinase-13 catalytic domain (“MMP-13CD”), rather than the corresponding full-length enzyme
Assay: Inhibition of MMP-13 catalytic domain (thiopeptolide substrate hydrolysis)
Format: biochemical
Conditions: hMMP-13CD, text b731; read-out: IC50 with hMMP-13CD
Observed property: IC50

• O=C(O)c1ccc(Cn2ccc3ccc(C#CCn4ccnn4)cc3c2=O)cc1 = > 50 µM

----------
Documented IC50 across a set of compounds
Biological target: MMP-13 catalytic domain (MMP-13CD) (Homo sapiens, UniProt P45452)
Construct: use the catalytic domain of the MMP-13 enzyme, namely matrix metalloproteinase-13 catalytic domain (“MMP-13CD”), rather than the corresponding full-length enzyme
Test: Inhibition of MMP-13 catalytic domain (thiopeptolide substrate hydrolysis)
Assay type: biochemical
Conditions: read-out: IC50 with MMP-13 catalytic domain
Observed property: IC50 (nM)

• O=C(O)c1ccc(Cn2ccc3ccc(C#CCc4ccccc4)cc3c2=O)cc1 = 1.8
• O=c1c2cc(C#CCc3ccccc3)ccc2ccn1Cc1cccc(Cl)c1 = 52
• O=C(O)c1ccc(Cn2ccc3ccc(C#CCn4ccnc4)cc3c2=O)cc1 = 8.9
• NS(=O)(=O)c1ccc(Cn2ccc3ccc(C#CCc4ccccc4)cc3c2=O)cc1 = 36

----------
// values below are IC50; system is MMP-3 catalytic domain (MMP-3CD) (Homo sapiens, UniProt P08254)
Sequence (P08254 100-272 limits assumed, species assumed): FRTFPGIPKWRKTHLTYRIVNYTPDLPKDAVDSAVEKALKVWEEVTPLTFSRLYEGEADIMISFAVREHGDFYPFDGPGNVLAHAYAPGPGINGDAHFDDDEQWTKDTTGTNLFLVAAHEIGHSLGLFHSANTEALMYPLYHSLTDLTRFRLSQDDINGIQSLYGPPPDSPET
Observed property: IC50 (µM)

* O=c1c2cc(C#CCc3ccccc3)ccc2ccn1Cc1ccc(-c2nn[nH]n2)cc1 [Example 18] | 4
* COc1cccc(CNC(=O)c2ccc3ccn(Cc4ccc(C#N)cc4)c(=O)c3c2)c1 [Example 37] | 13
* N#Cc1ccc(Cn2ccc3ccc(C#CCc4ccccc4)cc3c2=O)cc1 [Example 19] | 5
* COc1cc(CNC(=O)c2ccc3ccn(Cc4ccc(C#N)cc4)c(=O)c3c2)ccn1 [Example 35] | 7
* Cc1ccc(CNC(=O)c2ccc3ccn(Cc4ccc(-c5nn[nH]n5)cc4)c(=O)c3c2)cc1 [Example 60] | 31
* O=C1CC(NC(=O)c2ccc(Cn3ccc4ccc(C#CCc5ccccc5)cc4c3=O)cc2)=NN1 [Example 22] | 4.1
* O=C(NCCN1CCOCC1)c1ccc(Cn2ccc3ccc(C#CCc4ccccc4)cc3c2=O)cc1 [Example 21] | 22

----------
Biological target: MMP-13 catalytic domain (MMP-13CD) (Homo sapiens, UniProt P45452)
Construct: use the catalytic domain of the MMP-13 enzyme, namely matrix metalloproteinase-13 catalytic domain (“MMP-13CD”), rather than the corresponding full-length enzyme
Experiment: Inhibition of MMP-13 catalytic domain (thiopeptolide substrate hydrolysis)
Assay type: biochemical
Conditions: Biological Table 1; read-out: MMP-13CD IC50
Documented IC50 across a set of compounds
Observed property: IC50 (nM)

- CSc1ccc(CNC(=O)c2ccc3ccn(Cc4ccc(S(C)(=O)=O)cc4)c(=O)c3c2)cc1: 2200
- N#Cc1ccc(Cn2ccc3ccc(C(=O)NCc4ccncc4)cc3c2=O)cc1: 1300
- COc1cc(CNC(=O)c2ccc3ccn(Cc4ccc(C(=O)O)cc4)c(=O)c3c2)ccc1O: 150
- COc1cccc(CNC(=O)c2ccc3ccn(Cc4ccc(C#N)cc4)c(=O)c3c2)c1: 95

----------
Molecular target: MMP-13 catalytic domain (MMP-13CD) (Homo sapiens)
Construct: use the catalytic domain of the MMP-13 enzyme, namely matrix metalloproteinase-13 catalytic domain (“MMP-13CD”), rather than the corresponding full-length enzyme
Assay: Inhibition of MMP-13 catalytic domain (thiopeptolide substrate hydrolysis)
Assay type: biochemical
Details: Biological Table 2, compounds of Example 66; read-out: MMP-13CD IC50
pIC50: −log10 of the molar value.
Documented pIC50 across a set of compounds
Observed property: pIC50

* N#CCCCCn1ccc2ccc(C#CCc3ccccc3)cc2c1=O [Example 66j] | 4.96
* CC(=O)OCCCCn1ccc2ccc(C#CCc3ccccc3)cc2c1=O [Example 66l] | 4.85
* CCOC(Cn1ccc2ccc(C#CCc3ccccc3)cc2c1=O)OCC [Example 66r] | 4.48
* N#CCCCCCCn1ccc2ccc(C#CCc3ccccc3)cc2c1=O [Example 66aj] | 5.41
* CC(C)(C)C(=O)Cn1ccc2ccc(C#CCc3ccccc3)cc2c1=O [Example 66ae] | 4.72
* O=c1c2cc(C#CCc3ccccc3)ccc2ccn1CCC1OCCO1 [Example 66m] | 4.62
* N#CCCn1ccc2ccc(C#CCc3ccccc3)cc2c1=O [Example 66d] | 5.32
